IC50 values, listed per item
- Test system: human lung cancer strain NCI-H441
- Type: cell-based
Where a SMILES comes first, the peptide text is derived from it. Bridges are numbered along the chain shown (N, C = ends). [ ]: non-standard residue; d: D form. The star is where a group is joined. hPhe(3-Cl-4-CF3) = N[C@@H](CCc1ccc(C(F)(F)F)c(Cl)c1)C(=O)O; NPrPhe(4-CF3) = CCCN[C@@H](Cc1ccc(C(F)(F)F)cc1)C(=O)O; NMeGly(cPent) = CN[C@H](C(=O)O)C1CCCC1; Piperidide(4-Me) = CC1CCN(*)CC1; NMeD = CN[C@@H](CC(=O)O)C(=O)O; NMeL = CN[C@@H](CC(C)C)C(=O)O; Pip = O=C(O)[C@@H]1CCCCN1; Morpholide = C1CN(*)CCO1; Ac5c = NC1(C(=O)O)CCCC1; NEtG = CCNCC(=O)O; Sar = CNCC(=O)O
Quick note: give the figure in nM, leave out the unit.

CCCN1C(=O)CN(C)C(=O)CN(CC)C(=O)[C@H]([C@@H](C)CC)NC(=O)[C@H](CC(C)C)N(C)C(=O)C[C@@H](C(=O)N2CCOCC2)N(C)C(=O)[C@H](C2CCCC2)N(C)C(=O)C2(CCCC2)NC(=O)[C@@H]2CCCCN2C(=O)[C@H](CCc2ccc(C(F)(F)F)c(Cl)c2)NC(=O)CN(C)C(=O)[C@@H]1Cc1ccc(C(F)(F)F)cc1 [PP0297] ([NMeL]I[NEtG][Sar][NPrPhe(4-CF3)][Sar][hPhe(3-Cl-4-CF3)][Pip][Ac5c][NMeGly(cPent)][NMeD]-Morpholide; lactam N-11)
74.3

Query compound follows.
**Query** Return IC50 for the following compound: CCCN1C(=O)CN(C)C(=O)CN(C)C(=O)[C@H]([C@@H](C)CC)NC(=O)[C@H](CC(C)C)N(C)C(=O)C[C@@H](C(=O)N2CCC(C)CC2)N(C)C(=O)[C@H](C2CCCC2)N(C)C(=O)C2(CCCC2)NC(=O)[C@@H]2CCCN2C(=O)[C@H](CCc2ccc(C(F)(F)F)c(Cl)c2)NC(=O)CN(C)C(=O)[C@@H]1Cc1ccc(C(F)(F)F)cc1 [PP0176] ([NMeL]I[Sar][Sar][NPrPhe(4-CF3)][Sar][hPhe(3-Cl-4-CF3)]P[Ac5c][NMeGly(cPent)][NMeD]-{Piperidide(4-Me)}; lactam N-11)
**Result** 17.7

----------
- STUDY_SYSTEM: GDP-bound KRAS wild-type protein (Homo sapiens, UniProt P01116)
- Sequence (P01116 1-188 isoform P01116-2): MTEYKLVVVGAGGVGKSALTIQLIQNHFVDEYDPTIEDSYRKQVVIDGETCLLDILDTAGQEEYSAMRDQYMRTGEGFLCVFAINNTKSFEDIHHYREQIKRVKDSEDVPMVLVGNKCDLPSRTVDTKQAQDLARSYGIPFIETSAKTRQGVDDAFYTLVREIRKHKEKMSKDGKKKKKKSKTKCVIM
- PROTOCOL_SUMMARY: Binding to KRAS by surface plasmon resonance (SPR), dissociation constant KD
- TEST_PARAMETERS: Single Cycle Kinetics
Where a SMILES comes first, the peptide text is derived from it. Bridges are numbered along the chain shown (N, C = ends). [ ]: non-standard residue; d: D form. The star is where a group is joined. hPhe(3,5-F2-4-CF3) = N[C@@H](CCc1cc(F)c(C(F)(F)F)c(F)c1)C(=O)O; NPrPhe(4-CF3) = CCCN[C@@H](Cc1ccc(C(F)(F)F)cc1)C(=O)O; NMeGly(cPent) = CN[C@H](C(=O)O)C1CCCC1; NMeD = CN[C@@H](CC(=O)O)C(=O)O; NMeL = CN[C@@H](CC(C)C)C(=O)O; αMeL = CC(C)C[C@](C)(N)C(=O)O; Morpholide = C1CN(*)CCO1; Aze = O=C(O)[C@@H]1CCN1; Sar = CNCC(=O)O
REPORTED_METRIC: pKd
Just so you know, pKd here is -log10 of the concentration in molar units; reply with that number alone.

# count of solved cases: 2
CCCN(C)C(=O)[C@@H]1CC(=O)N(C)[C@@H](CC(C)C)C(=O)N[C@@H]([C@@H](C)CC)C(=O)N(C)CC(=O)N(C)[C@H]2C/C=C\CCN(C2=O)[C@@H](Cc2ccc(C(F)(F)F)cc2)C(=O)N(C)CC(=O)N[C@@H](CCc2cc(F)c(C(F)(F)F)c(F)c2)C(=O)N2C[C@H](OCC)C[C@H]2C(=O)N[C@]2(C[C@@H](OC)C2)C(=O)N(C)[C@@H](C2CCCC2)C(=O)N1C
9.55
CCCN1C(=O)CN(C)C(=O)[C@@H]2CCN2C(=O)[C@H]([C@@H](C)CC)NC(=O)[C@H](CC(C)C)N(C)C(=O)C[C@@H](C(=O)N2CCOCC2)N(C)C(=O)[C@H](C2CCCC2)N(C)C(=O)[C@](C)(CC(C)C)NC(=O)[C@@H]2CCCN2C(=O)[C@H](CCc2cc(F)c(C(F)(F)F)c(F)c2)NC(=O)CN(C)C(=O)[C@@H]1Cc1ccc(C(F)(F)F)cc1 [PP0776] ([NMeL]I[Aze][Sar][NPrPhe(4-CF3)][Sar][hPhe(3,5-F2-4-CF3)]P[αMeL][NMeGly(cPent)][NMeD]-Morpholide; lactam N-11)
7.82

Next compound, please.
**Query** Answer with the recorded pKd of `C=CC[C@H]1C(=O)N(C)[C@H](C(=O)N(C)C)CC(=O)N(C)[C@@H](CCC)C(=O)N[C@@H]([C@@H](C)CC)C(=O)N2CCC[C@H]2C(=O)N(C)[C@H]2C/C=C\CCN(C2=O)[C@@H](Cc2ccc(C(F)(F)F)cc2)C(=O)N(C)CC(=O)N[C@@H](CCc2cc(F)c(C(F)(F)F)c(F)c2)C(=O)N2C[C@H](OCC)C[C@H]2C(=O)N(C)C2(CCC2)C(=O)N1C` only.
**Result** 8.34

----------
- Test system: human lung cancer strain NCI-H441
- Type: cell-based
REPORTED_METRIC: IC50 (nM)
Answer format: numeric, nM implied, no suffix.

**Query** State its IC50: CCO[C@@H]1C[C@H]2C(=O)NC3(CCC3)C(=O)N(C)[C@@H](C3CCCC3)C(=O)N(CC)[C@H](C(=O)N3CCOCC3)CC(=O)N(C)[C@@H](CC)C(=O)N[C@@H]([C@@H](C)CC)C(=O)N(C)CC(=O)N(C)[C@H]3CCCCCN(C3=O)[C@@H](Cc3ccc(C(F)(F)F)cc3)C(=O)N(C)CC(=O)N[C@@H](CCc3cc(F)c(C(F)(F)F)c(F)c3)C(=O)N2C1 [PP0944]
**Result** 344

**Query** Answer with reported IC50 of CCO[C@@H]1C[C@H]2C(=O)NC3(CC(C)(C)C3)C(=O)N(C)[C@@H](C3CCCC3)C(=O)N(C)[C@H](C(=O)N3CCOCC3)CC(=O)N(C)[C@@H](COC)C(=O)N[C@@H]([C@@H](C)CC)C(=O)N(C)CC(=O)N(C)[C@H]3CCCCCN(C3=O)[C@@H](Cc3ccc(C(F)(F)F)cc3)C(=O)N(C)CC(=O)N[C@@H](CCc3cc(F)c(C(F)(F)F)c(F)c3)C(=O)N2C1 [PP0844]
**Result** 50.2

----------
- STUDY_SYSTEM: GDP-bound KRAS wild-type protein (Homo sapiens)
- PROTOCOL_SUMMARY: Binding to KRAS by surface plasmon resonance (SPR), dissociation constant KD
- TEST_PARAMETERS: Single Cycle Kinetics, 1:1 binding model
Each record here notes measured pKd.
Notebook: values listed as pKd are -log10 of the concentration (mol/L).

Previously resolved entries follow.
CC[C@H](C)[C@@H]1NC(=O)[C@H](CC)N(C)C(=O)C[C@@H](C(=O)N(C)C)N(C)C(=O)[C@H](C2CCCC2)N(C)C(=O)C2(CCC2)NC(=O)CN(CC)C(=O)[C@H](CCc2cc(F)c(C(F)(F)F)c(F)c2)NC(=O)CN(C)C(=O)[C@H](Cc2ccc(C(F)(F)F)cc2)N2CC/C=C\C[C@@H](C2=O)N(C)C(=O)CN(C)C1=O
9.77
CCCOC[C@H]1C(=O)N[C@@H]([C@@H](C)CC)C(=O)N(C)CC(=O)N(C)[C@H]2C/C=C\CCN(C2=O)[C@@H](Cc2ccc(C(F)(F)F)cc2)C(=O)N(C)CC(=O)N[C@@H](CCc2ccc(C(F)(F)F)c(OC)c2)C(=O)N2C[C@@H](C)C[C@H]2C(=O)NC2(CCC2)C(=O)N(C)[C@@H](C2CCCC2)C(=O)N(C)[C@H](C(=O)N(C)CC)CC(=O)N1C
9.96
CCO[C@@H]1C[C@H]2C(=O)NC3(CCC3)C(=O)N(C)[C@@H](C3CCCC3)C(=O)N(C)[C@H](C(=O)N(C)CC)CC(=O)N(C)[C@@H](CC(F)(F)F)C(=O)N[C@@H]([C@@H](C)CC)C(=O)N(C)CC(=O)N(C)[C@H]3C/C=C\CCN(C3=O)[C@@H](Cc3ccc(C(F)(F)F)cc3)C(=O)N(C)CC(=O)N[C@@H](CCc3cc(F)c(C(F)(F)F)c(F)c3)C(=O)N2C1
10.10
CCC[C@H]1C(=O)N[C@@H](C(CC)CC)C(=O)N(C)CC(=O)N(C)[C@H]2C/C=C\CCN(C2=O)[C@@H](Cc2ccc(C)cc2)C(=O)N(C)CC(=O)N[C@@H](CCc2ccc(C(F)(F)F)c(Cl)c2)C(=O)N2C[C@H](OCC)C[C@H]2C(=O)NC2(CC(C)(C)C2)C(=O)N(C)[C@@H](CC(C)C)C(=O)N(C)[C@H](C(=O)N(C)C)CC(=O)N1C
8.31
CCO[C@@H]1C[C@H]2C(=O)NC3(CCC3)C(=O)N(C)[C@@H](C(CC)CC)C(=O)N(C)[C@H](C(=O)N(C)C)CC(=O)N(C)[C@@H](CC3CCCC3)C(=O)N[C@@H]([C@@H](C)CC)C(=O)N(C)CC(=O)N(C)[C@H]3C/C=C\CCN(C3=O)[C@@H](CC3CCCCC3)C(=O)N(C)CC(=O)N[C@@H](CCc3cc(F)c(C(F)(F)F)c(F)c3)C(=O)N2C1
9.07

Turning now to a further record.
**Query** Provide one value: measured pKd of `CCO[C@@H]1C[C@H]2C(=O)NC3(CCC3)C(=O)N(C)[C@@H](C3CCCC3)C(=O)N(C)[C@H](C(=O)N(C)C)CC(=O)N(C)[C@@H](C)C(=O)N[C@@H]([C@@H](C)CC)C(=O)N(C)CC(=O)N(C)[C@H]3CCCCCN(C3=O)[C@@H](Cc3ccc(F)cc3)C(=O)N(C)CC(=O)N[C@@H](CCc3cc(F)c(C(F)(F)F)c(F)c3)C(=O)N2C1`
**Result** 10.18
